target: Hypoxia-inducible factor 1-alpha (Homo sapiens) (UniProt Q16665); experiment: Inhibition of HIF1alpha transcriptional activity in hypoxia-induced human HCCLM3 cells co-transfected with luciferase reporter plasmid containing five copies of HREs and pRL-SV40 plasmid encoding Renilla luciferase at 10 uM incubated with compound under normoxia for 1 hr followed by hypoxia induction and measured after 24 hrs by HRE-dependent dual luciferase reporter gene assay relative to control
Sequence (Q16665 whole entry, looked up): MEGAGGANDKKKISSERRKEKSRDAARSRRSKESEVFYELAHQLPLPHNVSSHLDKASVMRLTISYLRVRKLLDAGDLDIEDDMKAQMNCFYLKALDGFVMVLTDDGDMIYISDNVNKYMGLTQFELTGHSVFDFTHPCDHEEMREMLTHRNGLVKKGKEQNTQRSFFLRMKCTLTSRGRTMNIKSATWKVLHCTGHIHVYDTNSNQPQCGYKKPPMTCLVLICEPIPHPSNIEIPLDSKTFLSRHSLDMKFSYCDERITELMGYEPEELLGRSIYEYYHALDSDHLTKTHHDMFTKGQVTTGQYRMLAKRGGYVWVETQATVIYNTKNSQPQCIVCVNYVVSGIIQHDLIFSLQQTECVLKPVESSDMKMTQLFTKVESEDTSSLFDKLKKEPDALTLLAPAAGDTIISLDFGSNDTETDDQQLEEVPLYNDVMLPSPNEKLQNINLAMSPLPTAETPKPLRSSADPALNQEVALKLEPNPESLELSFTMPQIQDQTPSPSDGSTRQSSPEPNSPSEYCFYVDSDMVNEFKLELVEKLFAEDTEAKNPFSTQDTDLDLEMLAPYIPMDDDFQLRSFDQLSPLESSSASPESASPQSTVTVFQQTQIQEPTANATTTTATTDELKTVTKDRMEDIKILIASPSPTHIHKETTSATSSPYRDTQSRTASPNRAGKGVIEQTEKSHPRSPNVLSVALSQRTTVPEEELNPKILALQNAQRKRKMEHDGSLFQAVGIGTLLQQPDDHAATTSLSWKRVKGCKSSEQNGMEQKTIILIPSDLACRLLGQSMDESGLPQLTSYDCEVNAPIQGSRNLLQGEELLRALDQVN
Use true when the recorded inhibition is no lower than 50%; use false when it is lower.

Test whether the molecule Nc1ccc(CCNC(=O)c2ccc(-c3ccccc3)cn2)cc1 records inhibition of 50% or higher.
true

Test whether the molecule Cc1nc(C(=O)NCCc2ccncc2)cs1 records inhibition of 50% or higher.
false

Test whether the molecule Cc1ccc(C(=O)NCCc2ccncc2)o1 records inhibition of 50% or higher.
false

Test whether the molecule COc1ccc(-c2ccc(C(=O)NCCc3ccccc3F)nc2)cc1 records inhibition of 50% or higher.
false

Test whether the molecule Cc1cccc(C(=O)NCCc2ccccc2Cl)n1 records inhibition of 50% or higher.
false

Test whether the molecule O=C(NCCc1ccc(F)cc1)c1ccc(-c2ccccc2)cn1 records inhibition of 50% or higher.
false

Test whether the molecule O=C(NCCc1cccnc1)c1ccc(-c2ccccc2)cn1 records inhibition of 50% or higher.
false

Test whether the molecule O=C(NCCc1ccncc1)c1ncc(-c2ccccc2)o1 records inhibition of 50% or higher.
true

Test whether the molecule O=C(NCCc1ccccc1Cl)c1nnc(-c2ccccc2)o1 records inhibition of 50% or higher.
false

Test whether the molecule O=C(NCCc1ccccc1Cl)c1csc(-c2ccncc2)n1 records inhibition of 50% or higher.
false

Test whether the molecule O=C(NCCc1ccccc1Cl)c1ccc(-c2ccccc2)cn1 records inhibition of 50% or higher.
true

Test whether the molecule O=C(NCCc1cccc(Cl)c1)c1ccc(-c2ccccc2)cn1 records inhibition of 50% or higher.
true

Test whether the molecule O=C(NCCc1ccccc1F)c1ccc(-c2ccc(O)cc2)cn1 records inhibition of 50% or higher.
false

Test whether the molecule O=C(NCCc1ccccc1F)c1ccc(-c2ccccc2O)cn1 records inhibition of 50% or higher.
false

Test whether the molecule COc1cccc(-c2ccc(C(=O)NCCc3ccccc3F)nc2)c1 records inhibition of 50% or higher.
true

Test whether the molecule O=C(NCCc1ccccn1)c1ccc(-c2ccccc2)cn1 records inhibition of 50% or higher.
false

Test whether the molecule Cc1nc(C(=O)NCCc2ccccc2)cs1 records inhibition of 50% or higher.
false

Test whether the molecule O=C(NCCc1ccccc1F)c1ccc(-c2ccc(F)cc2)cn1 records inhibition of 50% or higher.
false

Test whether the molecule Cc1nc(C(=O)NCCc2cccc(Cl)c2)cs1 records inhibition of 50% or higher.
false

Test whether the molecule O=C(NCCc1ccccc1F)c1ccc(-c2cn[nH]c2)cn1 records inhibition of 50% or higher.
false

Test whether the molecule O=C(NCCc1ccc(Cl)cc1)c1ccc(-c2ccccc2)cn1 records inhibition of 50% or higher.
true

Test whether the molecule O=C(NCCc1ccccc1Cl)c1csc(-c2ccccc2)n1 records inhibition of 50% or higher.
true

Test whether the molecule O=C(NCCc1ccccc1Cl)c1ccc(-c2ccccc2)nc1 records inhibition of 50% or higher.
false

Test whether the molecule O=C(NCCc1ccncc1)c1ccc(-c2ccccc2)cc1 records inhibition of 50% or higher.
false
